These entries and their values trace back to patent US6930203B2.

procedureDetails: Solvent scope of N,N′-dialkylaldaramides (1%) or N,N′-dialkylpentaramides (1%): gelation/solubility behaviour in solvents
Type: physicochemical
conditionSet: 1% gelling agent; 1,2-dichloroethane
experimentalEndpoint: Gelation/solubility behaviour in 1,2-dichloroethane

Solved cases (9 shown):
[
  {
    "compound": "CCCCNC(=O)[C@@H](O)[C@@H](O)[C@H](O)[C@H](O)C(=O)NCCCC [Example 2, dibutyl D-mannaramide]",
    "reported": "Ns"
  },
  {
    "compound": "CCCCCCCCCCCCNC(=O)[C@@H](O)[C@@H](O)[C@H](O)[C@H](O)C(=O)NCCCCCCCCCCCC [Example 13, didodecyl D-mannaramide]",
    "reported": "c"
  },
  {
    "compound": "CCCCCCCCNC(=O)[C@@H](O)[C@@H](O)[C@H](O)[C@H](O)C(=O)NCCCCCCCC [Example 9, dioctyl D-mannaramide]",
    "reported": "ns"
  },
  {
    "compound": "CCCCCCCCNC(=O)[C@@H](O)[C@@H](O)[C@H](O)[C@@H](O)C(=O)NCCCCCCCC [Example 8, dioctyl D-glucaramide]",
    "reported": "ns"
  },
  {
    "compound": "CCCCCCCC/C=C\\CCCCCCCCNC(=O)[C@@H](O)[C@@H](O)[C@H](O)[C@@H](O)C(=O)NCCCCCCCC/C=C\\CCCCCCCC [Example 19, dioleyl D-glucaramide]",
    "reported": "c"
  },
  {
    "compound": "O=C(NC1CCCCC1)[C@@H](O)[C@@H](O)[C@@H](O)C(=O)NC1CCCCC1 [Example 4, dicyclohexyl D-ribaramide]",
    "reported": "s"
  },
  {
    "compound": "O=C(NC1CCCCCCCCCCC1)[C@@H](O)[C@H](O)[C@H](O)[C@@H](O)C(=O)NC1CCCCCCCCCCC1 [Example 17, dicyclododecyl galactaramide]",
    "reported": "ns"
  },
  {
    "compound": "O=C(NC1CCCCCCCCCCC1)[C@@H](O)[C@@H](O)[C@H](O)[C@@H](O)C(=O)NC1CCCCCCCCCCC1 [Example 15, dicyclododecyl D-glucaramide]",
    "reported": "g"
  },
  {
    "compound": "CCCCCCCCCCCCNC(=O)[C@@H](O)[C@@H](O)[C@H](O)[C@@H](O)C(=O)NCCCCCCCCCCCC [Example 12, didodecyl D-glucaramide]",
    "reported": "p"
  }
]

Consider the compound CCCCCCCCCCCCNC(=O)[C@@H](O)[C@@H](O)[C@H](OC)[C@@H](O)C(=O)NCCCCCCCCCCCC [Example 21, 3-O-methyl-didodecyl D-glucaramide] . State its measured Gelation/solubility behaviour in 1,2-dichloroethane.
p
